# Tested on: ICR strain mice
# methodDescription: Pulmonary toxicity (pulmonary fibrosis) in mice, intraperitoneal injection
# Format: in vivo
# details: 5 mg/kg i.p. once a day for 10 days; reference of the ratio not stated
Listed next: entries and their corresponding Grade of pulmonary fibrosis, Ratio.
Please give the numeric answer without any surrounding text.

Recorded Grade of pulmonary fibrosis, Ratio of Cc1c(N)nc(C(CC(N)=O)NCC(N)C(N)=O)nc1C(=O)NC(C(=O)NC(C)C(O)C(C)C(=O)NC(C(=O)NCCc1nc(-c2nc(C(=O)NCCCN(C)CCCNC(C)c3ccc(Cl)cc3)cs2)cs1)C(C)O)C(OC1OC(CO)C(O)C(O)C1OC1OC(CO)C(O)C(OC(N)=O)C1O)c1cnc[nH]1 (stereo not shown) , please.
0.13

Recorded Grade of pulmonary fibrosis, Ratio of Cc1c(N)nc(C(CC(N)=O)NCC(N)C(N)=O)nc1C(=O)NC(C(=O)NC(C)C(O)C(C)C(=O)NC(C(=O)NCCc1nc(-c2nc(C(=O)NCCCN(C)CCCNCC3CCCCCCCCCC3)cs2)cs1)C(C)O)C(OC1OC(CO)C(O)C(O)C1OC1OC(CO)C(O)C(OC(N)=O)C1O)c1cnc[nH]1 (stereo not shown) , please.
0.00

Recorded Grade of pulmonary fibrosis, Ratio of Cc1c(N)nc(C(CC(N)=O)NCC(N)C(N)=O)nc1C(=O)NC(C(=O)NC(C)C(O)C(C)C(=O)NC(C(=O)NCCc1nc(-c2nc(C(=O)NCCCN(C)CCCN(Cc3ccc(OCc4ccc(Cl)c(Cl)c4)c(OCc4ccc(Cl)c(Cl)c4)c3)Cc3ccc(OCc4ccc(Cl)c(Cl)c4)c(OCc4ccc(Cl)c(Cl)c4)c3)cs2)cs1)C(C)O)C(OC1OC(CO)C(O)C(O)C1OC1OC(CO)C(O)C(OC(N)=O)C1O)c1cnc[nH]1 (stereo not shown) , please.
0.00

Recorded Grade of pulmonary fibrosis, Ratio of Cc1c(N)nc(C(CC(N)=O)NCC(N)C(N)=O)nc1C(=O)NC(C(=O)NC(C)C(O)C(C)C(=O)NC(C(=O)NCCc1nc(-c2nc(C(=O)NCCC[N+](C)(C)CCC[N+](C)(C)CCCNCC3CCCCCCC3)cs2)cs1)C(C)O)C(OC1OC(CO)C(O)C(O)C1OC1OC(CO)C(O)C(OC(N)=O)C1O)c1cnc[nH]1 (stereo not shown) , please.
0.00

Recorded Grade of pulmonary fibrosis, Ratio of Cc1c(N)nc(C(CC(N)=O)NCC(N)C(N)=O)nc1C(=O)NC(C(=O)NC(C)C(O)C(C)C(=O)NC(C(=O)NCCc1nc(-c2nc(C(=O)NCCC[N+](C)(CCCN(Cc3ccccc3)Cc3ccccc3)Cc3ccccc3)cs2)cs1)C(C)O)C(OC1OC(CO)C(O)C(O)C1OC1OC(CO)C(O)C(OC(N)=O)C1O)c1cnc[nH]1 (stereo not shown) , please.
0.00

Recorded Grade of pulmonary fibrosis, Ratio of Cc1c(N)nc(C(CC(N)=O)NCC(N)C(N)=O)nc1C(=O)NC(C(=O)NC(C)C(O)C(C)C(=O)NC(C(=O)NCCc1nc(-c2nc(C(=O)NCCCN(C)CCCNCCc3ccc(Cl)cc3)cs2)cs1)C(C)O)C(OC1OC(CO)C(O)C(O)C1OC1OC(CO)C(O)C(OC(N)=O)C1O)c1cnc[nH]1 (stereo not shown) , please.
0.13

Recorded Grade of pulmonary fibrosis, Ratio of Cc1c(N)nc(C(CC(N)=O)NCC(N)C(N)=O)nc1C(=O)NC(C(=O)NC(C)C(O)C(C)C(=O)NC(C(=O)NCCc1nc(-c2nc(C(=O)NCCCN3CCN(CCCN(Cc4ccccc4)Cc4ccccc4)CC3)cs2)cs1)C(C)O)C(OC1OC(CO)C(O)C(O)C1OC1OC(CO)C(O)C(OC(N)=O)C1O)c1cnc[nH]1 (stereo not shown) , please.
0.00

Every entry's value here was drawn from patent US4568490A.
